Target desc: T1, CD73 on the surface of human tumor cells (human, UniProt P21589 27-549)
T1 chain: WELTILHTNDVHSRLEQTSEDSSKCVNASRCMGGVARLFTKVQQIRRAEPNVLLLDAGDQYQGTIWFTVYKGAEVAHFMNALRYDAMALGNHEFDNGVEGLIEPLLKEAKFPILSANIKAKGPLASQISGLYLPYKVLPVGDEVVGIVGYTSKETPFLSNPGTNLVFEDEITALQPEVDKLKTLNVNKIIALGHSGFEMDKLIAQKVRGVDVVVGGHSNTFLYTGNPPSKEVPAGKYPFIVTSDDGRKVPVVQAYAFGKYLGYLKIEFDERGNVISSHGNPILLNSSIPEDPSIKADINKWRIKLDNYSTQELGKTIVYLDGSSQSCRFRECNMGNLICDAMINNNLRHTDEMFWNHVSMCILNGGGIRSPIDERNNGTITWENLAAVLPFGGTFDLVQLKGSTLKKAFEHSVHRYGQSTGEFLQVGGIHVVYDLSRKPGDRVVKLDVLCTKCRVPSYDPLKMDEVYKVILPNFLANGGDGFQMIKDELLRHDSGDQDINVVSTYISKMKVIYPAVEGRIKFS
Test description: FACS; NCI-H1299 cells, left table
Reported endpoint: pEC50
Please note pEC50 is a logarithmic value: minus log10 of concentration in mol/L. Answer with that number alone.

These solved cases illustrate the format of a correct answer.
Binder	pEC50
Hu001c-24 (antibody, V domains shown) VH: QVQLVQSGAEVKKPGASVKVSCKTSGYTFTNYYIYWVKQRPGQGLEWIGWIYPGNLNIKYNEKFKGRVTITADKSASTAYMELSSLRSEDTAVYYCARDDNYAWFAYWGQGTLVTVSS VL: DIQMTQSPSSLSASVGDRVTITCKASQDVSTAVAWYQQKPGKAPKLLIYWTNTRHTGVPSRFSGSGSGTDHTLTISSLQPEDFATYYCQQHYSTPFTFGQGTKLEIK	8.89
Hu001c-28 (antibody, V domains shown) VH: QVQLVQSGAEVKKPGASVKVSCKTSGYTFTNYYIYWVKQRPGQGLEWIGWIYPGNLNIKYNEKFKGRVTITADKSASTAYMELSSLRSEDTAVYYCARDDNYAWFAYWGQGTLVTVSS VL: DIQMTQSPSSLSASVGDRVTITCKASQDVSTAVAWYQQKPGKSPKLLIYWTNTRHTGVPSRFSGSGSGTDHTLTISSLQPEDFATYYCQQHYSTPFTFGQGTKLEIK	8.85
mAb001c (antibody, V domains shown) VH: QVQLQQSGPELVKPGASVRISCKTSGYTFTNYYIYWVKQRPGQGLEWIGWIYPGNLNIKYNEKFKGKSTLTADKSSSTAFMQLSSLTSEDSAVYFCARDDNYAWFAYWGQGTLVTVSS VL: DIVMTQSHKFMSTSIGDRVSITCKASQDVSTAVAWYQQKPGQSPKLLIYWTNTRHTGVPDRFTGNTSGTEHTLTISSVQAEDLALYYCQQHYSTPFTFGSGTTLEIK	8.83

Attention now shifts to the item below.
Note to self: pEC50 recorded for Hu001c-14 (antibody, V domains shown) VH: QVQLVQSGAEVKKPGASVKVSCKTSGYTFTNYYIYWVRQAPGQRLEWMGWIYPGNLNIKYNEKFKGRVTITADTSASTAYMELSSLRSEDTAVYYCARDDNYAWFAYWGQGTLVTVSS VL: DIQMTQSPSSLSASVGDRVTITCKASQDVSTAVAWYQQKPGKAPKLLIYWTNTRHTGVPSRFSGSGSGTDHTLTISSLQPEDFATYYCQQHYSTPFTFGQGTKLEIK was 8.87

Source: patent US20210024646A1
